PROTOCOL: qHTS Screen of the MIPE 4.0 Collection Against Ewings Sarcoma (TC71) (AID 1259253); also: nearly all actives have a fitted effect of over 40% in size
CONDITIONS: TC71 Ewing sarcoma viability, CellTiter-Glo, 48 h; series mostly up to 45.8 µM
Records with an inconclusive call do not appear. Calls of active or inactive are those of the source. Calls follow the shape of the dose curve; as a rule, active = well fitted inhibition curve with a large enough effect; inconclusive = small, poorly fitted or top-dose-only effect; inactive = no such curve, though single readings can be large or run the other way.
Labels: active, inactive

CHEMICAL_STRING: Cn1c2ccccc2c2c3c(c4c5ccccc5n(CCC#N)c4c21)CNC3=O
CLASS: active

CHEMICAL_STRING: CC(C)c1cnn2c(NCc3ccccc3)cc(N[C@@H](CO)[C@H](O)CO)nc12
CLASS: active

CHEMICAL_STRING: CCCCN1CCC(CNC(=O)c2c3n(c4ccccc24)CCCO3)CC1
CLASS: active

CHEMICAL_STRING: Cc1[nH]c2ccccc2c1CCNCc1ccc(C=CC(=O)NO)cc1
CLASS: active

CHEMICAL_STRING: C[C@@]12O[C@@H](C[C@]1(O)CO)n1c3ccccc3c3c4c(c5c6ccccc6n2c5c31)CNC4=O
CLASS: active

CHEMICAL_STRING: CC1(C)CCC(c2ccc(Cl)cc2)=C(CN2CCN(c3ccc(C(=O)NS(=O)(=O)c4ccc(N[C@H](CCN5CCOCC5)CSc5ccccc5)c(S(=O)(=O)C(F)(F)F)c4)cc3)CC2)C1
CLASS: active

CHEMICAL_STRING: O=C(C=Cc1cccnc1)NCCCCC1CCN(C(=O)c2ccccc2)CC1
CLASS: active

CHEMICAL_STRING: CCn1nnc2c(N3CCOCC3)nc(-c3ccc(NC(=O)Nc4ccc(C(=O)N5CCN(C)CC5)cc4)cc3)nc21
CLASS: active

CHEMICAL_STRING: Cc1ccc(C(=O)Nc2cccc(C(F)(F)F)c2)cc1-c1ccc2nc(NCCN3CCOCC3)ncc2c1
CLASS: active

CHEMICAL_STRING: CC(C)c1cc(C(=O)N2Cc3ccc(CN4CCN(C)CC4)cc3C2)c(O)cc1O
CLASS: active

CHEMICAL_STRING: CN(C)CC=CC(=O)Nc1cc2c(Nc3ccc(F)c(Cl)c3)ncnc2cc1O[C@H]1CCOC1
CLASS: active

CHEMICAL_STRING: Cc1cc(C(=O)N2CCN(c3cccc(Cl)c3)CC2)n(-c2ccccc2)n1
CLASS: active

CHEMICAL_STRING: COc1ccc2c(OCc3nnc4ccc(-c5ccccc5)nn34)ccnc2c1
CLASS: inactive

CHEMICAL_STRING: C[C@@H]1CN(CC(=O)Nc2ccc3c(c2)Cc2cccc(-c4cc(=O)cc(N5CCOCC5)o4)c2S3)C[C@H](C)O1
CLASS: active

CHEMICAL_STRING: O=C(O)[C@H](Cc1c[nH]c2ccccc12)N1C(=O)c2ccccc2C1=O
CLASS: inactive

CHEMICAL_STRING: Clc1ccc2ncc(-c3cccc(NC4CNC4)n3)n2c1
CLASS: active

CHEMICAL_STRING: Cc1c(CN2CCN(S(C)(=O)=O)CC2)sc2c(N3CCOCC3)nc(-c3cnc(N)nc3)nc12
CLASS: active

CHEMICAL_STRING: COc1cc2c(cc1-c1c(C)noc1C)ncc1[nH]c(=O)n([C@H](C)c3ccccn3)c12
CLASS: active
